Molecular target: T1, rat KLB (+N-ter FLAG) (rat, UniProt Q99N32 53-989 (mouse entry))
T1 construct: expressed from KLB cDNA on HEK293T cells and read by FACS
T1 chain: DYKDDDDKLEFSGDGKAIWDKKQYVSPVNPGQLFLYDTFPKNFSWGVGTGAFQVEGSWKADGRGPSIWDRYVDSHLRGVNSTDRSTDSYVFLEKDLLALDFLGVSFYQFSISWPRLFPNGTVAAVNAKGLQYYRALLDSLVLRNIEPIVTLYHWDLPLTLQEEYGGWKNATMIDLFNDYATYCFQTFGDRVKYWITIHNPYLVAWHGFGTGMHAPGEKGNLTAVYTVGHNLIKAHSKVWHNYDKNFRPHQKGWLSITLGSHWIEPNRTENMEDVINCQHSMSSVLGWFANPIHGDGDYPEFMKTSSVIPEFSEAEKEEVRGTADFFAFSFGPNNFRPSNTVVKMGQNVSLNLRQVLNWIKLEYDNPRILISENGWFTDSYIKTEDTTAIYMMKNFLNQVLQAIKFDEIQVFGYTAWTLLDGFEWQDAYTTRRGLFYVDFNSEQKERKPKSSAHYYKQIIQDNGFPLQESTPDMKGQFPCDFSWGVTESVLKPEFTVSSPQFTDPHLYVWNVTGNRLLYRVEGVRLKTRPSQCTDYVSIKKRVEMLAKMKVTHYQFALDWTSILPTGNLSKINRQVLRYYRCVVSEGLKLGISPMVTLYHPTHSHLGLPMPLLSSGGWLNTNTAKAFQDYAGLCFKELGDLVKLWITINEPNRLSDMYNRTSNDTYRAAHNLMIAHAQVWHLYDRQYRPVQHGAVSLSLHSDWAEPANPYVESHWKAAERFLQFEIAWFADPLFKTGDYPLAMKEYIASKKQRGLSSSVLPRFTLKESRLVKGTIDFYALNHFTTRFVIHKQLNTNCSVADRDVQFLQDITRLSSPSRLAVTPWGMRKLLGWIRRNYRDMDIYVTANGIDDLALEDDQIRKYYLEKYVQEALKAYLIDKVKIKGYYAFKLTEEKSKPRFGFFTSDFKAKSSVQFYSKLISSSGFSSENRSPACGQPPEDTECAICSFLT
Experiment: FACS on transfected HEK293T cells
OUTCOME_MEASURE: binding result

{"BINDER": "8C5 (antibody, V domains shown, murine hybridoma-derived anti-KLB antibody; also called KLBmAb1) VH: QVQLKQSGPGLVQPSQSLSVACTVSDFSLTTYGVHWVRQSPGKGLEWLGVIWSGGSTDYNAAFISRLTISKDNSKSQVFFKMNSLQTTDTAIYYCARDYGSTYVDAIDYWGQGTSVTVSS VL: DIVLTQSPTSLAVSLGQRATISCRASESVESYGNRYMTWYQQKPGQPPKLLIYRAANLQSGIPARFSGSGSRTDFTLTIDPVEADDVATYYCQQSNEDPWTFGGGTKVEIK", "binding result": "binds"}
{"BINDER": "21H3 (antibody, V domains shown, murine hybridoma-derived anti-KLB antibody) VH: QVQLQQPGAEIVKPGASVRLSCKASGYSFTSYWIHWVKQRPGQGLEWIGEIDPSVSNSNYNQKFKGKATLTADKSSSTAYMQLSGLTSEDSAVYFCVRLGVMVYGSSPFWFAYWGQGTLVTVSA VL: DIVMTQSQKFMSTSVGDRVSITCKASQFVSDAVAWYQQKPGQSPKLLICSASYRYTGVPDRFTGSGSGTDFTFTISSVRTEDLAVYYCQQHYIVPYTFGGGTTLEIE", "binding result": "no binding"}
{"BINDER": "12B8 (antibody, V domains shown, murine hybridoma-derived anti-KLB antibody) VH: QIQLVQSGPELKKPGETAKISCKASGYAFSNYGMNWVKQAPGKDLKWMGWIDTDTGEATYTDDFKGRFVFSLETSASTAYLQINNLKNEDMATYFCAREEYGLFGFPYWGHGTLVTVSA VL: DIQMTQSSSSFSVSLGDRVTITCKASEDIYNRLAWYQQKPGSAPRLLISAATSLETGVPSRFSGSGSGKDYTLSITSLQTEDVATYYCQQYWSNPLTFGAGTKLEIK", "binding result": "no binding"}
{"BINDER": "46C3 (antibody, V domains shown, murine hybridoma-derived anti-KLB antibody) VH: EVQLQQSGAELVKPGASVKLSCTASDFNIIDTYIHWVKQRPEQGLEWIGRIDPANGNTKYDPKFQDKAALTSDTDSNTAYLLFNSLTSEDTAVYYCARGTSYSWFAYWGQGTLVSVSA VL: AVLMTQTPLSLPVSLGDQASISCRSSQNIVHSDGNTYLEWYLQKPGQSPKLLIYKVSNRFSGVPDRFSGSGSGRDFTLKISRVEAGDLGVYYCFQGSHVLTFGAGTRLELK", "binding result": "no binding"}
{"BINDER": "14C10 (antibody, V domains shown, murine hybridoma-derived anti-KLB antibody; also called KLBmAb3) VH: QVTLKESGPGILQPSQTLSLTCSFSGFSLSTSAMGIGWIRQPSGKGLEWLAHIWWDDDKRYNPALKSRLTISKDTSRNQVFLKIASVDTADTATYFCARIDGIYDGSFYAMDYWGQGTSVTVSS VL: DIVLTQSPASLAVSLGQRATISCRASESVDSYGNSFMHWYQQKPGQPPKLLIYRASNLESGIPARFSGSGSRTDFTLTINPVEADDVANYYCQQSNEDYTFGGGTKLEIK", "binding result": "no binding"}
{"BINDER": "12A11 (antibody, V domains shown, murine hybridoma-derived anti-KLB antibody; also called KLBmAb2) VH: EVKFLESGGGLVQPGGSLRLSCAVSGIDFSRYWMSWVRQAPGKGLEWIGEISPDSSTINYTPSLKDKFVISRDNAKNTLYLQMSKVRSADTALYYCARPSPALDYWGQGTLVTVSA VL: DIVMTQSPATLSVTPGDRVSLSCRASQSISDYVYWYQQKSHESPRLLIIYASQSISGIPSRFSGSGSGSDFTLSINSVEPEDVGVYYCQNGHNFPYTFGGGTKLEIK", "binding result": "no binding"}

Now look at this entry.
### Prompt Give the reported value of binding result for this record: 11F1 (antibody, V domains shown, murine hybridoma-derived anti-KLB antibody) VH: EVQLVESGGGLVKPGGSLKLSCAPSGFTFSSYGISWVRQTPEKRLEWVATVSSGGRYTYYPDSVKGRFTISRDNAENTLYLQMSSLRSEDTAMYYCTRGGDGYALDYWGQGTSVTVSS VL: DIQMTQTTSSLSASLGDRVTIICSASQVISNYLNWYQQKPDGTVKLLIYFTSSLRSGVPSRFSGSGSGTDYSLTISNLEPEDVATYFCQQYSKLPWTFGGGTKLELK
### Response no binding
